B1: CPEB3 Ribozyme (parent)
chain: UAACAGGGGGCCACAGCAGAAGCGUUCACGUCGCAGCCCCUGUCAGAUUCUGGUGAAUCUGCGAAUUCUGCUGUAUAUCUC

# Variants of: B1
# test-details: self-cleavage, relative activity (ratio to wild type); higher = more cleavage; in vitro, sequencing
Given measured self-cleavage, output True if it is greater than or equal to 0.3 and False if not.

Reference set (3 entries):
[ask] Check this variant for self-cleavage at or above 0.3: G10C A45U
[reply] False

[ask] Check this variant for self-cleavage at or above 0.3: C37U U74C
[reply] True

[ask] Check this variant for self-cleavage at or above 0.3: A3C U26A
[reply] True

Here is the next item to consider.
[ask] Check this variant for self-cleavage at or above 0.3: G9U G53U
[reply] True
